- Target system: Class A ESBL SHV-5 (Klebsiella pneumoniae, UniProt P0A3M1)
- Construct: made in house; host or cells: E. coli BL21(DE3) for purified enzyme; E. coli cells containing SHV-5 for extracts
- Sequence (P0A3M1 22-286): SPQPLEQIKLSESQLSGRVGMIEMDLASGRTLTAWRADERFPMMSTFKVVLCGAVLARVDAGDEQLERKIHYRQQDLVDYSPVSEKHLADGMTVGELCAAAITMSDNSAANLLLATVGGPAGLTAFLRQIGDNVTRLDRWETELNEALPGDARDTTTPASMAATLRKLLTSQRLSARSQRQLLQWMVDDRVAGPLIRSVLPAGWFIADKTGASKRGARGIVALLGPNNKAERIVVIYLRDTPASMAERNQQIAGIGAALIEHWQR
- Type: biochemical, E. coli
- Run parameters: cellular extracts of E. coli containing SHV-5 (Examples 2-30); nitrocefin 100 μM, PBS pH 7.0; read-out: SHV-5 IC50 Range
In this section, each of the compounds is paired with its reported IC50.

>  <Compound>
CCCCC(=O)N[C@@H](Cc1cccc(C(=O)O)c1O)B(O)O [Example 23]

>  <IC50>
10 to 100 nM

$$$$
>  <Compound>
COc1cccc(C(=O)N[C@@H](Cc2cccc(C(=O)O)c2O)B(O)O)c1 [Example 29]

>  <IC50>
10 to 100 nM

$$$$
>  <Compound>
CCC(=O)N[C@@H](Cc1cccc(C(=O)O)c1O)B(O)O [Example 16]

>  <IC50>
100 to 1000 nM

$$$$
>  <Compound>
O=C(Cc1cccc(O)c1)N[C@@H](Cc1cccc(C(=O)O)c1O)B(O)O [Example 3]

>  <IC50>
< 10 nM

$$$$
>  <Compound>
O=C(CCC(=O)c1cccs1)N[C@@H](Cc1cccc(C(=O)O)c1O)B(O)O [Example 5]

>  <IC50>
< 10 nM

$$$$
>  <Compound>
Cc1ccccc1C(=O)N[C@@H](Cc1cccc(C(=O)O)c1O)B(O)O [Example 30]

>  <IC50>
10 to 100 nM

$$$$
